What pIC50 was measured for each of the following?
- System: Jurkat
- TEST_NAME: cells
- Type: cell-based
- CONDITION_DETAILS: Homo sapiens, 48 h, read-out: IC50 (concentration that inhibits viability by 50%)
Remember the convention: pIC50 equals -log10 of concentration in molar.

Ask | Any idea what its pIC50 is? The compound is C/C=C1\NC(=O)[C@H]2CSSCC/C=C/[C@H](CC(=O)N[C@H](C(C)C)C(=O)N2)OC(=O)[C@H](C(C)C)NC1=O [romidepsin]
Reply | 9.34

Ask | Any idea what its pIC50 is? The compound is Cn1c(CCCC(=O)O)nc2cc(N(CCCl)CCCl)ccc21 [bendamustine]
Reply | 4.75
